Test: Drug excretion in mouse B16-F0 cells bearing C57BL/6 mouse urine at 0.74 to 0.92 MBq, iv after 72 hrs
Type: ADME, organism-based
Settings: in vivo
Binarize Activity at 70%; below is True, at or above is False.

Q) Item "CCN(CC)CCNC(=O)c1cc2c([125I])cccc2cn1.Cl.Cl" : Activity beneath 70%, strictly?
A) True

Q) API: query returns whether the compound falls strictly under 70% in Activity. Query: "CCN(CC)CCNC(=O)c1cc2c([125I])cccc2s1.Cl"
A) True

Q) Hello, is Activity of the following compound strictly smaller than 70%? "CCN(CC)CCNC(=O)c1ccc2cc([125I])ccc2n1.Cl.Cl"
A) False
